Reported PBM binding z-score is given for each of the following sequences.
tested on: PPARg:RXRa 90nM:30nM, anti-RXR (NR concentration 90 nM, RXRa partner concentration 30 nM); assay: PBM binding z-score (relative to random genomic background probes); higher = stronger binding; sequences stand for … in GC…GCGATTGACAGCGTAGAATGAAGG
Form rule: numeric answer, no unit written next to it.

These solved cases illustrate the format of a correct answer.
CAAACTAGGTCATAGGTCAAAGTCGAGCCAACCA; 12
TAGCCTAGGTCAGATCGGGCCAGTATTCGCTATA; -0.025
CTCGAAAGCTCGTGCTCAGGTGAGTATACCAAAC; -0.913

Per the records, this sequence ( CGTCAAAGTTCAACTAAGGTAACGTGAAGCACGC ) has PBM binding z-score equal to 4.5

Per the records, this sequence ( GGAACGAGGGCAAAGTTGATGGCATCTGTCGACG ) has PBM binding z-score equal to 6.81

Per the records, this sequence ( GTACCAAGGTGAATAGGTCGATGATGAGTAGGCG ) has PBM binding z-score equal to 1.28

* * *

tested on: THRa homodimer (NR concentration 90 nM); experiment: PBM binding z-score (relative to random genomic background probes); higher = stronger binding; sequences stand for … in GC…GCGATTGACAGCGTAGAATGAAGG
Classes based on PBM binding z-score: c1 (below -0.02), c2 (-0.02 to below 1), c3 (1 or more)

For orientation, consider the following solved cases.
CCTAGTTGGTGAGGAGGTCACACACCGGATATGA; c3
ACAGACAGGTGAGTGAAGGTACCTCAGCTGGACG; c1
CCTTACGGGTCACTGACAGGTTCTAGCATTTGGA; c2

Task: Form field 'band' for ATATGTAGGTTATCGGGGCATTCAGTTTGCGCAT
Output: c3

Task: Form field 'band' for TCAGATAGGTGAAGGTAACTCAGGTACGCAGTCG
Output: c2

Task: Form field 'band' for CCAGACAGGTGAAAGGTAACTTAGTCTGGTACGC
Output: c1

Task: Form field 'band' for TCAGACAGGTCAAGGTAACTCAGGTACGCAGTCG
Output: c3

Task: Form field 'band' for TCATATAGGTAAATGCTAGGTGAAGGTCCGATCT
Output: c2

Task: Form field 'band' for AGTCAAAGTTCAGGGCGAGGTAACGTAAAGCACG
Output: c3

Task: Form field 'band' for AATACAGGGTCATCGTAGGCCAGAGCACGCACAG
Output: c3

* * *

tested on: PPARg:RXRa IVT, anti-PPARg (NR concentration 270 nM, RXRa partner concentration 90 nM); test: PBM binding z-score (relative to random genomic background probes); higher = stronger binding; sequences stand for … in GC…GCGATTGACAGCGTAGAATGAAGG
Reported PBM binding z-score is given for each of the following sequences.

These solved cases illustrate the format of a correct answer.
ACTAGTTGGTCTGCTGAGGTCACACACAATTCGG; 1.95
TCGAGTAAGTTACCAATGGGGCATTCAGCTTTCT; -0.101
AATACAGGGTCATCGTAGGCCAGACTACGCACAG; 4.16

Proceed to the following item.
Observed PBM binding z-score on PPARg:RXRa IVT, anti-PPARg (NR concentration 270 nM, RXRa partner concentration 90 nM), entry AGAATGAGGTTACCAAAGAGCAGGGAAACGCTTG , equals 2.96

* * *

system: PPARa:RXRa (NR concentration 270 nM, RXRa partner concentration 90 nM); test: PBM binding z-score (relative to random genomic background probes); higher = stronger binding; sequences stand for … in GC…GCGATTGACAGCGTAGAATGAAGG
Binary classification by PBM binding z-score, with 1 as an inclusive lower bound for y; all other cases are n.

For orientation, consider the following solved cases.
AATACAGGGTCACTAGACCAGAGTAGGTACGAAT; y
CGAACGAGGGCATGAGTTGATAGCTAATGCCGAT; y
GCGACTGGGGCATCAGCTGGTTACCATAACTTAA; n
TCATATAGGTAAGAGGTGAAAGTCGGTGTGGTAA; y
ATATGCAGGTTACATCCGGGTCATTCAGGCTATG; y

Task: Record CCAGACAGGTGAGAAGGTAACTCTGCCTCGATTA ; criterion: PBM binding z-score no lower than 1. Met?
Output: n

Task: Record TCGAGTAGGCTACCAATGGGGCATTCAGCTTTCT ; criterion: PBM binding z-score no lower than 1. Met?
Output: n

* * *

test system: RARa homodimer (NR concentration 270 nM); assay: PBM binding z-score (relative to random genomic background probes); higher = stronger binding; sequences stand for … in GC…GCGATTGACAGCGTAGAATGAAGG
Measure Name: PBM binding z-score
Form rule: numeric answer, no unit written next to it.

CGTCCAAGGTCAGCAGGTCCGTGAAAGCGACGTG; 0.18

Per the records, this sequence ( CCGACTGGGGCATAAGGTTACCAGAAGCCAGCCC ) has PBM binding z-score equal to -0.798

Per the records, this sequence ( TCTCGGAGGCCACGAAGGTCAGAGCTTTCCAGAG ) has PBM binding z-score equal to -1.17

* * *

test system: RXRa homodimer (NR concentration 180 nM); assay: PBM binding z-score (relative to random genomic background probes); higher = stronger binding; sequences stand for … in GC…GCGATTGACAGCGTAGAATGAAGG
Reported PBM binding z-score is given for each of the following sequences.
Form rule: numeric answer, no unit written next to it.

These solved cases illustrate the format of a correct answer.
CCGACTGGGGCATAAGATTACCATAAGCCAGCCC; -0.0512
TAGCCTAGGTCATTCAAGGGCCAGTATAGAAAGC; 3.14
GTACCAACGTGAATAGGTCGTTGATGAGTAGGCG; 0.489
AGAACGCGGGCAATGAGTTGATAGCACGGGTGGC; 0.299
CCGGCTGGGGCAAGGTTACCATAACGCACAGCCA; 1.14

Per the records, this sequence ( CCGACTGGGGCAAAAGGTTACCATAAGCCAGCCC ) has PBM binding z-score equal to 2.71

* * *

test system: PXR:RXRa (NR concentration 270 nM, RXRa partner concentration 90 nM); experiment: PBM binding z-score (relative to random genomic background probes); higher = stronger binding; sequences stand for … in GC…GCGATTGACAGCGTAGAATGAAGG
Binary classification by PBM binding z-score, with 0.5 as an inclusive lower bound for True; all other cases are False.

For orientation, consider the following solved cases.
ATATGTAGGTTACACCCGGGTCATTCAGGCTATG; True
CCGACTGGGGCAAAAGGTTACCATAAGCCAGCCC; True

Task: Record TCTCGGAGGACACGAAAGCTCAGAGCTCGACATC ; criterion: PBM binding z-score no lower than 0.5. Met?
Output: False

Task: Record ACTAGTTGGTCAGCTGAGGTCGCACACAATTCGG ; criterion: PBM binding z-score no lower than 0.5. Met?
Output: True

Task: Record ACCTACGGGTCAACGAGGTTATAGCACGCGTATA ; criterion: PBM binding z-score no lower than 0.5. Met?
Output: True

Task: Record CCGAGTAGGTTATGGGACATTCAGGCAACGGTGA ; criterion: PBM binding z-score no lower than 0.5. Met?
Output: False

* * *

test system: RXRa DBDmut IVT, anti-RXR (DBD mutation: RXRa K156A/R161A, NR concentration 90 nM); experiment: PBM binding z-score (relative to random genomic background probes); higher = stronger binding; sequences stand for … in GC…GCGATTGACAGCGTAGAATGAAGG
Measure Name: PBM binding z-score
Form rule: numeric answer, no unit written next to it.

CGTCAAAGTTCAACTAAGGTATCGTAAAGCACGC; 4.68
ATCGAAAGGTCGACGGTGAGTATACCCACCCGAA; 0.878
CCTCGGAGGACAGAAGGTCAGCGCTGTCCGCTTT; 0.468

Per the records, this sequence ( CCTTACGGGTCACTCCAGGTTAGAGCATCGGAGT ) has PBM binding z-score equal to 1.55

Per the records, this sequence ( ACTAGCAGGCCAACTTTGGGTCACTCAAACAAAG ) has PBM binding z-score equal to -0.27

Per the records, this sequence ( GCTAGTTGGTCAGTAAAAGGTCACACTCCGGTCG ) has PBM binding z-score equal to 0.827

* * *

system: RARa:RXR (NR concentration 270 nM, RXRa partner concentration 90 nM); experiment: PBM binding z-score (relative to random genomic background probes); higher = stronger binding; sequences stand for … in GC…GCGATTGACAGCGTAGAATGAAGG
Reported PBM binding z-score is given for each of the following sequences.
Form rule: numeric answer, no unit written next to it.

CCAACTGGGGCAGAAAGGTTACCATACCATCCGG; 1.98
CCTCGGAGGACAGAAGGTCAGTGCTGTCCGCTTT; 1.65
TCTTGTCGATCAGCAGGTTAAGAAAGCTGGCCAA; 0.75
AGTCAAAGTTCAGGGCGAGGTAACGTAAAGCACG; 2.93
AGAATGAGGTTATACTTAGATCAGGGAAGAAAGT; 1.38

Proceed to the following item.
Per the records, this sequence ( CGTCCAAGGTCAAGGTCAGTGACAGAGACTCGAA ) has PBM binding z-score equal to 5.72
